# ASSAY_TARGET: Zinc finger protein mex-5 (Caenorhabditis elegans) (UniProt Q9XUB2)
# Sequence (Q9XUB2 whole entry, looked up): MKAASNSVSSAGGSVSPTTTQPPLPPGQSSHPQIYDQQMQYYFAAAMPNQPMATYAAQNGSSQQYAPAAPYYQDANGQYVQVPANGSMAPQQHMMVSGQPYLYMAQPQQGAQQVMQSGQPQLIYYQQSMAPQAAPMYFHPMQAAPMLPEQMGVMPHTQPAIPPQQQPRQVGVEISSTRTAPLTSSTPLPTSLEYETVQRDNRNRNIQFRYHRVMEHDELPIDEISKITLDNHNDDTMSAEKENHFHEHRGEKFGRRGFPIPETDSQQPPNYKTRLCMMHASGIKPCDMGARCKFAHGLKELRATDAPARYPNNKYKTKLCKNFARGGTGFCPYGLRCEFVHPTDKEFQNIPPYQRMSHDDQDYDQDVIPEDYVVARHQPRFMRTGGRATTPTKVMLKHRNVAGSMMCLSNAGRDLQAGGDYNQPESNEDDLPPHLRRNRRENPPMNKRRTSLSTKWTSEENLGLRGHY
# EXPERIMENTAL_PROTOCOL: inhibitors of MEX-5 RNA binding, dose response, biochemical, fluorescence polarization, MBP-MEX-5, FITC-TCR2 RNA (AID 2739)
# TEST_PARAMETERS: MBP-MEX-5 / FITC-TCR2 RNA fluorescence polarization, 1 h
Inconclusive results are not listed. The source made the active and inactive calls.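 The calls were made as follows: active = IC50 no more than tenfold above the highest tested concentration; inconclusive = flat fit with activity between 30% and 70%, or an invalid poor fit; inactive = IC50 beyond tenfold over the top concentration.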
RECORDED_ENDPOINT: IC50

Reference set (2 entries):
Given the entry O=C(NNC(=O)c1ccccc1[N+](=O)[O-])c1csc(N2CCOCC2)n1 , report its measured IC50.
1310 nM

Given the entry NC(CO)C(=O)NNCc1ccc(O)c(O)c1O (stereo unspecified) , report its measured IC50.
> 135000 nM (inactive)

---
Given the entry Cc1nc2ccccc2c(=O)n1/N=C/c1ccc(O)c(O)c1O , report its measured IC50.
924 nM

Given the entry CCOC(=O)C1CCN(C(=O)CCC(=O)NNc2nc3ccccc3c3nc(C)nn23)CC1 , report its measured IC50.
2390 nM

Given the entry Cc1nc(N=Nc2ccc(O)cc2)n[nH]1 , report its measured IC50.
16100 nM

Given the entry N=c1c(C(=O)NC2CCCCC2)cc2c(=O)n3ccccc3nc2n1Cc1cccnc1 , report its measured IC50.
> 350000 nM (inactive)

Given the entry COCCCNC(=O)CCC(=O)NNc1nc2ccccc2c2nc(C)nn12 , report its measured IC50.
1640 nM

Given the entry CCc1ccccc1N1C(=O)/C(=C\c2ccc(N3CCN(C)CC3)o2)C(=O)NC1=S , report its measured IC50.
> 135000 nM (inactive)

Given the entry Cn1ncc2c(NNC(=O)Cc3ccccc3)ncnc21 , report its measured IC50.
1310 nM

Given the entry Cc1cnc(C(=O)NNC(=O)c2ccc(Br)cc2)cn1 , report its measured IC50.
1080 nM

Given the entry COCCNC(=O)CCC(=O)NNc1nc2ccccc2c2nc(C)nn12 , report its measured IC50.
1490 nM

----------
# ASSAY_TARGET: Zinc finger protein mex-5 (Caenorhabditis elegans)
# EXPERIMENTAL_PROTOCOL: inhibitors of MEX-5 RNA binding, dose response, biochemical, fluorescence polarization, MBP-MEX-5, FITC-TCR2 RNA (AID 2739)
# TEST_PARAMETERS: MBP-MEX-5 / FITC-TCR2 RNA fluorescence polarization, 1 h
Inconclusive results are not listed. Activity calls are given as the source filed them.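 How the source made its calls: active means IC50 no more than tenfold above the highest tested concentration; inconclusive means flat fit with activity between 30% and 70%, or an invalid poor fit; inactive means IC50 beyond tenfold over the top concentration.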
RECORDED_ENDPOINT: IC50

Given the entry O=c1c(O)cccc2cc(O)c(O)c(O)c12 , report its measured IC50.
2.03 µM

Given the entry COc1ccc(-c2cn[nH]c2-c2ccc(OCC(=O)NN)cc2O)cc1OC , report its measured IC50.
1.57 µM

---
Given the entry N=c1c(C(=O)NC2CCCCC2)cc2c(=O)n3ccccc3nc2n1Cc1ccc(F)cc1 , report its measured IC50.
> 135 µM (inactive)

Given the entry CCN(CC)c1ccc(/C=C2\C(=O)NC(=S)N(C)C2=O)o1 , report its measured IC50.
> 135 µM (inactive)

Given the entry CCN(CC)c1ccc(/C=C2\C(=O)NC(=S)N(c3ccc(OC)cc3OC)C2=O)o1 , report its measured IC50.
> 135 µM (inactive)

Given the entry CCCCN(C)C(=O)CCC(=O)NNc1nc2ccccc2c2nc(C)nn12 , report its measured IC50.
4.17 µM

Given the entry Cc1ccc(N2C(=O)NC(=O)/C(=C\c3cc(C)n(-c4ccc(C(=O)O)cc4)c3C)C2=O)cc1 , report its measured IC50.
> 135 µM (inactive)

----------
# ASSAY_TARGET: Zinc finger protein mex-5 (Caenorhabditis elegans) (UniProt Q9XUB2)
# EXPERIMENTAL_PROTOCOL: inhibitors of MEX-5 RNA binding, dose response, biochemical, fluorescence polarization, MBP-MEX-5, FITC-TCR2 RNA (AID 2739)
# TEST_PARAMETERS: MBP-MEX-5 / FITC-TCR2 RNA fluorescence polarization, 1 h
Inconclusive results are not listed. Activity calls are given as the source filed them.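 The calls were made as follows: active = IC50 no more than tenfold above the highest tested concentration; inconclusive = flat fit with activity between 30% and 70%, or an invalid poor fit; inactive = IC50 beyond tenfold over the top concentration.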
Valid outcomes are listed here; reply with one: active, inactive

Before answering, review these 4 worked examples.
Short answer needed: outcome of this test for CCc1ccc(C(=O)NNC(=O)c2ccc(=O)n(C)n2)cc1 ?
active

Short answer needed: outcome of this test for CCOC(=O)c1cc(CC)sc1/N=C/c1c(O)[nH]c(=S)[nH]c1=O ?
inactive

Short answer needed: outcome of this test for CCOCCCNC(=O)CCC(=O)NNc1nc2ccccc2c2nc(C)nn12 ?
active

Short answer needed: outcome of this test for Cc1ncc(CO)c(/C=N/NC(=O)c2cc(Br)ccc2O)c1O ?
active

---
Short answer needed: outcome of this test for CC1=C(C(=O)OCc2ccccc2)C(c2ccccc2[N+](=O)[O-])NC(=O)N1C (stereo not given) ?
active
